Below, each entry is listed alongside its reported GI50.
System: SR
Assay: NCI tumour cell line growth inhibition, 48 h
Active and inactive are the calls of the source. Cut-off read from the data, not from the text of the source: active = GI50 up to about 1.1 µM and inactive = higher.

compound: Cc1cc(NS(=O)(=O)c2ccc(NC(=O)COC(=O)c3cccc4c(=O)c5ccccc5[nH]c34)cc2)no1
GI50: > 100 µM (inactive)

compound: COC(=O)c1ccc(/C=C2\Cc3ccccc3C2=O)cc1
GI50: > 100 µM (inactive)

compound: CC1=CSC(O)(c2ccc(Cl)cc2)c2noc(=O)n21 (stereo unspecified)
GI50: 50.7 µM (inactive)

compound: COc1ccc(-c2cc(-c3ccc(Nc4ccnc5cc(Cl)ccc45)cc3)nc(N)c2C#N)cc1
GI50: > 100 µM (inactive)

compound: Nc1nc(Cl)cc(/N=N\c2ccccc2)n1
GI50: 9.79 µM (inactive)

compound: COc1ccc2c(c1OC)OCC(CN(C)C)C2=O (stereo unspecified)
GI50: 1.87 µM (inactive)

compound: COC1CCC(OS(C)(=O)=O)C(CO)O1 (stereo unspecified)
GI50: > 100 µM (inactive)

compound: CCC[C@H]1C(=O)N=C(N)N1C(=O)OCc1ccccc1
GI50: > 100 µM (inactive)

compound: Oc1c2c(nc3cc4c(cc13)OCO4)-c1ccccc1CCC2
GI50: 12.3 µM (inactive)

compound: CCN(CC)c1ccc2cc(-c3nnc(-c4ccccc4)[nH]3)c(=O)oc2c1
GI50: 70.5 µM (inactive)

compound: OCC(O)C(OC1OC(CO)C(O)C(O)C1O)c1nn(-c2ccc(F)cc2)c2nc3cc(Cl)c(Cl)cc3cc12 (stereo unspecified)
GI50: > 100 µM (inactive)

###

Test system: Hs-578T
Test: NCI tumour cell line growth inhibition, 48 h
The source made the active and inactive calls. Rule as the data show it: active = GI50 up to about 1.1 µM and inactive = higher.
Outcome codes: TRUE for active, FALSE for inactive

molecule: CN1CC[C@@]2(c3cccc(O)c3)CC(=O)/C(=C/c3ccccc3)[C@H]1C2.[O-][Cl+3]([O-])([O-])O
group: FALSE
--
molecule: C[C@H]1C[C@H]2[C@@H]3CCC4=CC(=O)C=C[C@]4(C)C3=CC[C@]2(C)[C@@]1(O)C(=O)CO
group: FALSE
--
molecule: O=[N+]([O-])/C(C(Cl)=C(Cl)Cl)=C(/Sc1ccccc1)N1CCCCC1
group: FALSE
--
molecule: CCOC(=O)N/N=C(\CC)NO
group: FALSE
--
molecule: O=C(O)C1(Cc2ccc3c(c2)CCC3)Cc2ccccc2C1
group: FALSE
--
molecule: Cc1nc2ccc(NCCN(C)C)c3c(=O)c4cc(O)ccc4n1c23
group: TRUE
--
molecule: CN(C)CCCCCNc1c2ccccc2nc2cccc([N+](=O)[O-])c12
group: TRUE
--
molecule: CCC(=O)NC(Nc1ccc(O)cc1)(C(F)(F)F)C(F)(F)F
group: FALSE
--
molecule: COc1cc([C@@H]2c3cc4c(cc3[C@@H](Nc3ccccc3C(=O)c3ccccc3)[C@H]3COC(=O)[C@H]23)OCO4)cc(OC)c1OC
group: TRUE
--
molecule: CN(NC(=O)c1ccco1)C1=NCCCCN1
group: FALSE
--
molecule: COC(=O)[C@@H]1CN(C(=O)c2ccccc2)C(=O)N1
group: FALSE
--
molecule: N#CC(c1ccccc1)c1cccc2ccccc12 (configuration not stated)
group: FALSE

###

This section presents compounds with their documented GI50 values.
Tested on: K562
Assay: NCI tumour cell line growth inhibition, 48 h
Calls of active or inactive are those of the source. Rule as the data show it: active = GI50 up to about 1.1 µM and inactive = higher.
property_name: GI50

compound: O=c1cc(-c2ccccc2)nc(/C=C(\O)c2ccncc2)n1-c1ccccc1
test_value: > 100 µM (inactive)
//
compound: Cc1cccc(C)c1NC(=O)CCC(=O)CC(=O)C(C)C
test_value: > 100 µM (inactive)
//
compound: CCOC(=O)C1=C(C)NC(C)=C(C(=O)OCC)C1c1ccc(C)cc1
test_value: 31 µM (inactive)
//
compound: Nc1nc(N)nc(CCCCc2nc(N)nc(N)n2)n1
test_value: > 100 µM (inactive)
//
compound: O=C(/C=C/c1ccc(O)c(O)c1)NCCc1ccc(-c2ccccc2)cc1
test_value: 27.2 µM (inactive)
//
compound: COC(=O)C(=O)C(C(=O)C(=O)Nc1ccc(C)cc1C)c1nc2ccccc2nc1O (stereo unspecified)
test_value: 42.5 µM (inactive)

###

System: OVCAR-3
Assay: NCI tumour cell line growth inhibition, 48 h
Where a name gives a salt, the structure may show the parent alone. The source made the active and inactive calls. Rule as the data show it: active = GI50 up to about 1.1 µM and inactive = higher. Square brackets hold non-standard residues; d marks the D form. Peptide text beside a SMILES is read from it. 2Nal = N[CH](Cc1ccc2ccccc2c1)C(=O)O
Classes used: active, inactive

molecule: COc1cc2c(cc1OC)[C@@H]([C@H](O)c1ccccc1)NCC2
group: inactive
--
molecule: C=CCc1[nH]c2c(OCc3ccccc3)cc(N(CC=C)C(C)=O)cc2c1C
group: inactive
--
molecule: CN(C)c1nc2n(CCO)ccnc-2c(=O)n1
group: inactive
--
molecule: O=c1[nH]c(=O)n([C@@H]2C[C@H](CO)[C@H](O)C2)cc1/C=C/Br
group: inactive
--
molecule: Cc1cc(C)n(C(=CC(=O)C(Cl)Cl)n2nc(C)cc2C)n1
group: inactive
--
molecule: CC(=O)OCC1OC(N2C(=O)C(=O)c3ccccc32)C(OC(C)=O)C(OC(C)=O)C1OC(C)=O (stereo unspecified)
group: inactive
--
molecule: O=c1c2cc(I)ccc2nc(S)n1Cc1ccccc1
group: inactive
--
molecule: COc1ccc(CCCNC(=O)c2cc(OC)c(OC)cc2CCO)cc1OC
group: inactive
--
molecule: CC(=O)CCC#Cc1ccccc1C(=O)C(C)=[N+]=[N-]
group: inactive
--
molecule: COC(=O)[C@@H]1CN(C(=O)c2ccccc2)C(=O)N1
group: inactive
--
molecule: CC(=O)OCC1OC(N2C(=O)NC(=O)C3C=C4CCCCC4=CC32)CC1OC(C)=O (stereo unspecified)
group: inactive
--
molecule: COC(=O)C1=C(C(=O)OC)SC2(S1)C1=C(CCCC1)SC(C(=O)OC)=C2C(=O)OC
group: inactive
--
molecule: CCOC(=O)c1c2ccccc2n2c(=O)n(C)nnc12
group: inactive
--
molecule: O=C1Nc2ccc(Br)cc2C1=Nc1cccnc1
group: inactive
--
molecule: ClCc1ccc(C2OCCO2)cc1
group: inactive
--
molecule: Cc1ccc(S(=O)(=O)N2CCN(CCO)CCN(S(=O)(=O)c3ccc(C)cc3)CCN(CCO)CC2)cc1
group: inactive
--
molecule: CCOP(=O)(OCC)[C@H]1OC(C)(C)O[C@@H]1CO
group: inactive
--
molecule: C[N+](C)(C)CC(=O)N/N=C(\CCC(=O)NCCc1ccccc1)CC(=O)c1ccccc1
group: inactive
--
molecule: CN(C)CC(C)(C)CN1c2ccccc2Sc2ccccc21
group: inactive
--
molecule: Cc1cc(NS(=O)(=O)c2ccc(NC(=O)COC(=O)c3cccc4c(=O)c5ccccc5[nH]c34)cc2)no1
group: inactive
--
molecule: CN(NC(=O)c1ccco1)C1=NCCCCN1
group: inactive
--
molecule: CC1OC(n2cc(C(F)(F)F)c(=O)[nH]c2=O)C=CC1=O (stereo unspecified)
group: inactive
--
molecule: COc1cccc(N[C@@H]2c3cc4c(cc3C(c3cc(OC)c(O)c(OC)c3)[C@H]3C(=O)OCC32)OCO4)c1 (stereo partly specified)
group: inactive
--
molecule: COc1cc(NC(C)=O)c2[nH]c3c(C)cc(NC(C)=O)c(C)c3c2c1
group: inactive
--
molecule: C/C(CC(=O)Nc1ccc(Cl)cc1)=N\NC(=O)C[n+]1ccccc1
group: inactive
--
molecule: Cc1ccc(Sc2ccc(C)cc2[N+](=O)[O-])c([N+](=O)[O-])c1
group: inactive
--
molecule: CC[C@]12CN3CCc4c([nH]c5ccccc45)[C@@](C(=O)OC)(c4cc5c(cc4OC)N(C)[C@H]4[C@@](O)(C(=O)OC)[C@H](OC(C)=O)[C@]6(CC)C=CCN7CC[C@]54[C@@H]76)CC(C3)[C@H]1O2 (stereo partly specified) [VINLEUROSINE SULFATE]
group: active
--
molecule: CCOC(=O)[C-]([N+]#N)[Si](C)(C)C
group: inactive
--
molecule: CCOC(=O)CC1=CSC2=NCCN12
group: inactive
--
molecule: COc1cc(C2SC(=N)Nc3c2c(C)nn3C(=O)c2ccc(Cl)cc2)cc(OC)c1OC (stereo unspecified)
group: inactive
--
molecule: CSc1nc2c(ncn2C2OC(CO)C(O)C(O)C2O)c(=O)[nH]1 (stereo unspecified)
group: inactive
--
molecule: N#Cc1nnn(-c2ccccc2)c1O
group: inactive
--
molecule: COC1CCC(OS(C)(=O)=O)C(CO)O1 (stereo unspecified)
group: inactive
--
molecule: CC(C)C1=CC23CCC4C(C)(C(=O)O)CCCC4(C)C2CC1C1C(=O)N(c2ccc(C(=O)O)cc2)C(=O)C13 (stereo unspecified)
group: inactive
--
molecule: COc1ccc2nc(NCN3C(=O)c4ccccc4C3=O)sc2c1
group: inactive
--
molecule: O=C(O)/C(O)=C\C(=O)c1ccc(Br)cc1
group: inactive
--
molecule: CC(C)C(NC(=O)C(CCCCN)NC(=O)C(Cc1c[nH]c2ccccc12)NC(=O)C(Cc1ccc(O)cc1)NC(=O)C(CS)NC(=O)C(N)Cc1ccc2ccccc2c1)C(=O)NC(CS)C(=O)NC(C(N)=O)C(C)O (stereo unspecified) (H-[2Nal]CYWKVCT-NH2; configuration not given here)
group: inactive
--
molecule: COc1ccc(-c2cc(-c3ccc(Nc4ccnc5cc(Cl)ccc45)cc3)nc(N)c2C#N)cc1
group: inactive
--
molecule: C=C1C(=O)O[C@H]2[C@H]3O[C@@H](C[C@@H]12)[C@@]1(C)CC[C@H](O1)[C@H](C)CCC[C@H]3C
group: active
--
molecule: C/C(=C\CNc1ncnc2c1ncn2CCC#N)CO
group: inactive
--
molecule: O=C(O)C(Cc1ccc(O)c([N+](=O)[O-])c1)N1C(=O)c2ccccc2C1=O (stereo unspecified)
group: inactive
